Test system: U-251
procedure text: NCI tumour cell line growth inhibition, 48 h
The source made the active and inactive calls. Cut-off read from the data, not from the text of the source: active = GI50 up to about 1.1 µM and inactive = higher.
Please answer using one outcome listed in 1 (active), 0 (inactive)

Previously resolved entries follow.
                                   compound  category_label
0  COC(=O)C1Cc2cccc(C)c2C1 (centres undefined)               0
1  CCc1c(Cc2cc(C)cc(C)c2)n2c(nc1=O)SCC2CBr (centres undefined)               0
2                 CCN(CC)/[N+]([O-])=N/OCOC               0
3            Nc1ncc(Cc2ccc3c(c2)OCO3)c(N)n1               0
4  S=C1Cc2c(-c3ccccc3)cc(-c3ccc(Cl)cc3)nc2-c2ccccc2N1               1

How did this test come out for Cc1c(Cl)ccc2[s+]snc12 ? 0

How did this test come out for Oc1c2c(nc3cc4c(cc13)OCO4)-c1ccccc1CCC2 ? 0

How did this test come out for CN(C)c1ccc(/N=N\c2cccc3ncccc23)cc1 ? 0

How did this test come out for CCN1C(=O)CS/C1=N\NC(=O)CSc1nc2ccccc2c(=O)n1CC ? 0

###

Measured GI50 values are reported for all entries that follow.
Test system: OVCAR-3
procedure text: NCI tumour cell line growth inhibition, 48 h
Calls of active or inactive are those of the source. Cut-off read from the data, not from the text of the source: active = GI50 up to about 1.1 µM and inactive = higher.

Worked cases, answers included:
                                   compound  system_tested                  val
0  O=C(/C=C/c1ccc(O)c([N+](=O)[O-])c1)CC(=O)/C=C/c1ccc(O)c([N+](=O)[O-])c1        OVCAR-3   26.6 µM (inactive)
1  CCOC12OC3=C(CC1CC1=C(CCC1=O)O2)C(=O)CC3 (stereo not drawn)        OVCAR-3  > 100 µM (inactive)

API: the following record is the query input.
What does the data say about its GI50? Entry: O=C(/C=C/c1ccc(O)c(O)c1)NCCc1ccc(-c2ccccc2)cc1 20.4 µM (inactive)

###

Tested on: KM12
procedure text: NCI tumour cell line growth inhibition, 48 h
Activity calls are given as the source filed them. Cut-off read from the data, not from the text of the source: active = GI50 up to about 1.1 µM and inactive = higher.
measured quantity: GI50

Worked cases, answers included:
                                   compound  system_tested  measured_quantity                   val
0  Nc1ncnc2c1ncn2C1OC(CO)=CC1O (stereo unspecified)           KM12               GI50  > 37.5 µM (inactive)
1  O=C1NC2OC(C(O)CO)C(O)C2O1 (stereo unspecified)           KM12               GI50   > 100 µM (inactive)
2  CC(C)[C@H](COC(C)(C)C)/N=C/N1CSc2ccccc21           KM12               GI50    27.6 µM (inactive)
3   COc1cccc(OC)c1/C=C1\OC(=O)c2cccc(OC)c21           KM12               GI50    1.74 µM (inactive)
4         CCOP(=O)(OCC)/C(C#N)=C/c1cnc[nH]1           KM12               GI50   > 100 µM (inactive)

What does the data say about its GI50? Entry: Oc1c2c(nc3cc4c(cc13)OCO4)-c1ccccc1CCC2 > 50 µM (inactive)

What does the data say about its GI50? Entry: CCO/C=N/C1=C(C#N)C(c2ccc(OC)c(OC)c2)c2c(-c3ccccc3)nn(-c3ccccc3)c2O1 (stereo unspecified) 8.02 µM (inactive)

What does the data say about its GI50? Entry: CC1C2CC(C(S(=O)(=O)N3CCOCC3)/C2=N\O)C1(C)C (stereo unspecified) > 100 µM (inactive)

What does the data say about its GI50? Entry: Cc1ccc(S(=O)(=O)N2CCN(CCO)CCN(S(=O)(=O)c3ccc(C)cc3)CCN(CCO)CC2)cc1 20.6 µM (inactive)

What does the data say about its GI50? Entry: CCOC(=O)C1(C#N)C2(C#N)C(N)=NC(ON=C(C)C)(ON=C(C)C)C12C#N (stereo unspecified) > 100 µM (inactive)

What does the data say about its GI50? Entry: Cc1c(C)n(-c2ccccc2)c2nc(S(C)(=O)=O)nc(S(C)(=O)=O)c12 13.7 µM (inactive)

###

Measured GI50 values are reported for all entries that follow.
Test system: HCC 2998
procedure text: NCI tumour cell line growth inhibition, 48 h
Activity calls are given as the source filed them. Rule as the data show it: active = GI50 up to about 1.1 µM and inactive = higher.

In [3]: df
Out[3]:
                                   molecule                  val
0     CCC[C@H]1C(=O)N=C(N)N1C(=O)OCc1ccccc1  > 100 µM (inactive)
1  COC(=O)C1=C(C(=O)OC)C2C(C)=CC(C)=CN2C(C#N)=C(SC)S1 (stereo not given)   37.2 µM (inactive)
2  Cc1cc(C[C@H]2O[C@@H]3OC(C)(C)O[C@@H]3[C@H]3OC(C)(C)O[C@H]32)c2ccccc2n1  > 100 µM (inactive)
3  NC(=O)C(=O)N/N=C1\C(=O)N(c2ccc(Cl)cc2Cl)C(=O)C1C(=O)Nc1ccc(Cl)cc1Cl (stereo not given)  > 100 µM (inactive)
4  O=c1[nH]c(=O)n([C@@H]2C[C@H](CO)[C@H](O)C2)cc1/C=C/Br  > 100 µM (inactive)
5                           C=C(COCO)C(C)=O   27.9 µM (inactive)
6  CSc1nc2c(ncn2C2OC(CO)C(O)C(O)C2O)c(=O)[nH]1 (stereo not given)  > 100 µM (inactive)
7  C=C1C(=O)O[C@H]2[C@H]3O[C@@H](C[C@@H]12)[C@@]1(C)CC[C@H](O1)[C@H](C)CCC[C@H]3C   1.28 µM (inactive)
8  CN1C/C(=C\c2ccccc2)C2=NN(C(N)=S)[C@H](c3ccccc3)[C@@H]2C1  > 100 µM (inactive)

API: the following record is the query input.
What does the data say about its GI50? Entry: CCCOCN1COCN/C1=N\C#N > 100 µM (inactive)

###

Test system: HOP-92
procedure text: NCI tumour cell line growth inhibition, 48 h
Active and inactive are the calls of the source. Cut-off read from the data, not from the text of the source: active = GI50 up to about 1.1 µM and inactive = higher.
Measured GI50 values are reported for all entries that follow.

Worked cases, answers included:
>>> print(df.to_string())
                                   compound  system_tested                  val
0  O=C[C@@H](CO)O[C@H](C=O)n1cnc2c(=O)nc[nH]c21         HOP-92    153 µM (inactive)
1              CC1(C)C=[N+]([O-])C(C)(C)N1O         HOP-92   > 10 µM (inactive)
2     O=C(O)C1(Cc2ccc3c(c2)CCC3)Cc2ccccc2C1         HOP-92     29 µM (inactive)
3  CCCCCCCCCCCCC(Br)C(C)=O (centres undefined)         HOP-92  > 100 µM (inactive)
4  CSc1nc2c(ncn2C2OC(CO)C(O)C(O)C2O)c(=O)[nH]1 (centres undefined)         HOP-92  > 100 µM (inactive)
5  Cc1ccc(NC(=O)CC/C(CC(=O)C(C)(C)C)=N\Nc2ccc([N+](=O)[O-])cc2[N+](=O)[O-])cc1C         HOP-92     27 µM (inactive)
6  O=C1C2C3C=C4c5ccccc5N(c5ccccc5)C4(C2C(=O)N1c1ccc(Cl)cc1)[C@H]1C(=O)N(c2ccc(Cl)cc2)C(=O)[C@@H]31 (some centres undefined)         HOP-92  > 100 µM (inactive)
7  C[C@]1(O)CC[C@H]2[C@@H]3CCc4cc(O)ccc4[C@H]3CC[C@@]21C         HOP-92   6.95 µM (inactive)

API: the following record is the query input.
What does the data say about its GI50? Entry: CCc1cccc(C)c1NC(=O)C1=C(C)NC(C)=C(C(=O)Nc2c(C)cccc2CC)C1c1ccc([N+](=O)[O-])cc1 2.75 µM (inactive)

###

Tested on: ACHN
procedure text: NCI tumour cell line growth inhibition, 48 h
Calls of active or inactive are those of the source. Cut-off read from the data, not from the text of the source: active = GI50 up to about 1.1 µM and inactive = higher.
Please answer using one outcome listed in TRUE (active), FALSE (inactive)

Previously resolved entries follow.
                                   molecule  category_label
0  CCCC[C@@H](C)/C=C1\CN2CCC[C@H]2[C@@](C)(OCc2ccccc2)[C@@H]1O           FALSE
1    CCOc1ccc(NCC(=O)N2CC(=O)Nc3ccccc32)cc1           FALSE
2  CCN(CC)CC/N=C\c1c(O)c(O)c(C(C)C)c2cc(C)c(-c3c(C)cc4c(C(C)C)c(O)c(O)c(/C=N/CCN(CC)CC)c4c3O)c(O)c12           FALSE
3  Cc1cc(C)n(C(=CC(=O)C(Cl)Cl)n2nc(C)cc2C)n1           FALSE
4                    N#Cc1nnn(-c2ccccc2)c1O           FALSE
5  Nc1nc(Cl)cc(NCC2(CO)CCC(CCc3ccccc3)C2)n1 (stereo unspecified)           FALSE

How did this test come out for Cc1ccc(-c2cc(O)c3cc4c(cc3n2)OCO4)cc1 ? FALSE

How did this test come out for COc1ccc2c(c1OC)OCC(CN(C)C)C2=O (stereo unspecified) ? FALSE

How did this test come out for Cc1ccc(NC(=O)NC23CC4CC(CC(F)(C4)C2)C3)cc1 ? FALSE

How did this test come out for C=CCNC(=O)CN(CC(=O)O)C1CCCCC1N(CC(=O)O)CC(=O)O (stereo unspecified) ? FALSE

How did this test come out for CO/N=C(/C)c1cccc(Nc2nc3ccc(Cl)cc3c3[nH]c4ccccc4c23)c1 ? FALSE

How did this test come out for NC(=O)C(=O)N/N=C1\C(=O)N(c2ccc(Cl)cc2Cl)C(=O)C1C(=O)Nc1ccc(Cl)cc1Cl (stereo unspecified) ? FALSE

How did this test come out for CC1=CC(=O)NP(=O)(Oc2ccc(C)cc2)N1 (stereo unspecified) ? FALSE

How did this test come out for O=[N+]([O-])c1ccc(NC(=S)N/N=C(\c2ccccc2)c2ccccn2)cc1 ? FALSE

How did this test come out for CCOC(=O)/C(C#N)=C1/C(O)=C(C(=O)OC)C(C(=O)OC)=C1C(=O)OC.c1ccncc1 ? FALSE

How did this test come out for COc1cc2c(cc1OC)C1=CCC(c3ccccc3)[N+]1(C)CC2 (stereo unspecified) ? FALSE

How did this test come out for COc1cc2c(c(OC)c1OC)-c1ccc(SC)c(=O)cc1[C@@H](NCc1ccc(C#N)cc1)CC2 ? TRUE

How did this test come out for CCOC(=O)N/N=C(\CC)NO ? FALSE

How did this test come out for O=c1c(C(c2cccc(C(c3c(O)oc4ccccc4c3=O)c3c(O)oc4ccccc4c3=O)c2)c2c(O)oc3ccccc3c2=O)c(O)oc2ccccc12 ? FALSE

How did this test come out for O=C(O)CCCC(=O)Nn1c(Cc2ccc(Cl)cc2)n[nH]c1=O ? FALSE

How did this test come out for O=c1cc(-c2ccccc2)nc(/C=C(\O)c2ccncc2)n1-c1ccccc1 ? FALSE
